- Protocol: Stability in human serum assessed as compound remaining at 50 uM after 30 mins by LC-MS analysis
- Type: ADME, cell-free
- Assay setup: read-out: Stability
Readout: remaining at 0.5 h, 50 µM (%)

Solved entries (count: 3):
COC(=O)[C@@H](Cc1cnc[nH]1)NC(=O)[C@@H](N)CCCCN; 90.5
NCCCC[C@H](N)C(=O)N[C@H](Cc1cnc[nH]1)C(N)=O; 68
NC(=O)CC[C@H](N)C(=O)N[C@H](Cc1cnc[nH]1)C(N)=O; 81.3

I = COC(=O)[C@H](Cc1cnc[nH]1)NC(=O)[C@@H](N)CCCCN
II = COC(=O)[C@@H](Cc1cnc[nH]1)NC(=O)[C@@H](N)Cc1ccc(O)cc1
Asked: Endpoint returns whichever of I and II has the numerically higher remaining at 0.5 h, 50 µM. Record your answer as the label of the chosen record.
Given back: I

* * *

// Activity lookup, one value per entry
- Protocol: Antioxidant activity assessed as PYR quenching after 180 mins by HPLC analysis
- Assay type: functional
- Design: concentration or dose not given beside the values
Answer with a number only, understood to be in %.

Asked: // returns reported Activity for input COC(=O)[C@@H](Cc1cnc[nH]1)NC(=O)[C@@H](N)CO
Given back: 2.08

Asked: // returns reported Activity for input CC[C@H](C)[C@H](N)C(=O)N[C@@H](Cc1cnc[nH]1)C(N)=O
Given back: 2.02

* * *

- Protocol: Antioxidant activity assessed as PYR quenching after 180 mins by HPLC analysis
- Type: functional
- Set-up: concentration or dose not given beside the values
// Activity lookup, one value per entry
Answer with a number only, understood to be in %.

Solved entries (count: 5):
NCCCC[C@H](N)C(=O)N[C@H](Cc1cnc[nH]1)C(N)=O; 0.75
COC(=O)[C@H](Cc1cnc[nH]1)NC(=O)[C@@H](N)C(C)C; 0.87
COC(=O)[C@H](Cc1cnc[nH]1)NC(=O)[C@@H](N)Cc1cnc[nH]1; 1.82
NCCCC[C@H](N)C(=O)N[C@@H](Cc1cnc[nH]1)C(N)=O; 0.41
N=C(N)NCCC[C@H](N)C(=O)N[C@@H](Cc1cnc[nH]1)C(N)=O; 0.26

Lab note: next compound to report on.
Asked: // returns reported Activity for input COC(=O)[C@H](Cc1c[nH]cn1)NC(=O)[C@@H](N)Cc1c[nH]c2ccccc12
Given back: 4.2

* * *

- Protocol: Antioxidant activity assessed as PYR quenching after 180 mins by HPLC analysis
- Assay type: functional
- Set-up: concentration or dose not given beside the values
Residues, ends and D or L forms follow the SMILES beside them.
// Activity lookup, one value per entry
Answer with a number only, understood to be in %.

Solved entries (count: 5):
N=C(N)NCCC[C@H](N)C(=O)N[C@H](Cc1cnc[nH]1)C(N)=O; 0.43
COC(=O)[C@@H](Cc1cnc[nH]1)NC(=O)[C@@H](N)CCCCN; 0.35
NC(=O)[C@H](Cc1cnc[nH]1)NC(=O)[C@@H](N)CC(=O)O; 1.49
CC[C@H](C)[C@H](N)C(=O)N[C@H](Cc1cnc[nH]1)C(N)=O; 0.59
COC(=O)[C@@H](Cc1cnc[nH]1)NC(=O)[C@@H](N)Cc1cnc[nH]1; 7.7

Asked: // returns reported Activity for input COC(=O)[C@H](Cc1cnc[nH]1)NC(=O)[C@@H](N)CS
Given back: 25.3

Asked: // returns reported Activity for input NC(=O)[C@H](Cc1cnc[nH]1)NC(=O)[C@@H](N)Cc1ccccc1
Given back: 1.22

Asked: // returns reported Activity for input COC(=O)[C@H](Cc1cnc[nH]1)NC(=O)[C@@H](N)Cc1ccc(O)cc1
Given back: 4.02

Asked: // returns reported Activity for input COC(=O)[C@H](Cc1cnc[nH]1)NC(=O)[C@@H](N)CO
Given back: 0.1

Asked: // returns reported Activity for input NCC(=O)N[C@@H](Cc1cnc[nH]1)C(=O)O (H-Gly-His-OH)
Given back: 3.77

The measured values listed here are drawn from ChEMBL document CHEMBL2407007.
